test system: 252836-082-R-J2-PDC tumor spheroids, viability; experiment: Anticancer human tumor 252836-082-R-J2-PDC patient-derived head and neck squamous cell carcinoma cell line growth inhibition [PI3K]; details: second compound 10 µM; first compound 3.16 µM; stronger effect = lower value; spheroids with HUVEC and MSC
Lab note: compare viability, T/C with 30%, writing true (1) if less and false (0) if equal or more.

compound="CC(C)NCC(C(=O)N1CCN(c2ncnc3c2C(C)CC3O)CC1)c1ccc(Cl)cc1 (configuration not stated) + Cc1nc(NC(=O)N2CCCC2C(N)=O)sc1-c1ccnc(C(C)(C)C(F)(F)F)c1" class_assignment="true (1)"
compound="Cn1nccc1Nc1nccc(-c2ccn(C(CO)c3ccc(Cl)c(F)c3)c(=O)c2)n1 (configuration not stated) + CC(Nc1ncnc2nc[nH]c12)c1cc2cccc(Cl)c2c(=O)n1-c1ccccc1" class_assignment="false (0)"
compound="CC1(C)CCC(Nc2ncc(C(F)(F)F)c(-c3c[nH]c4c(P(C)(C)=O)c(C#N)ccc34)n2)CN1 (configuration not stated) + CC(Nc1ncnc2nc[nH]c12)c1cc2cccc(Cl)c2c(=O)n1-c1ccccc1" class_assignment="true (1)"
compound="C#Cc1c(F)ccc2cc(O)cc(-c3ncc4c(N5CC6CCC(C5)N6)nc(OCC56CCCN5CC(F)C6)nc4c3F)c12 (configuration not stated) + Cc1nc(NC(=O)N2CCCC2C(N)=O)sc1-c1ccnc(C(C)(C)C(F)(F)F)c1" class_assignment="true (1)"
compound="Cn1nccc1Nc1nccc(-c2ccn(C(CO)c3ccc(Cl)c(F)c3)c(=O)c2)n1 (configuration not stated) + Cc1nc(NC(=O)N2CCCC2C(N)=O)sc1-c1ccnc(C(C)(C)C(F)(F)F)c1" class_assignment="true (1)"
compound="C#Cc1c(F)ccc2cc(O)cc(-c3ncc4c(N5CC6CCC(C5)N6)nc(OCC56CCCN5CC(F)C6)nc4c3F)c12 (configuration not stated) + CC(Nc1ncnc2nc[nH]c12)c1cc2cccc(Cl)c2c(=O)n1-c1ccccc1" class_assignment="false (0)"

---

tested on: 252836-082-R-J2-PDC tumor spheroids, viability; assay: Anticancer human tumor 252836-082-R-J2-PDC cell line growth inhibition [PI3K]; details: second compound 3.16 µM; first compound 0.316 µM; stronger effect = lower value; spheroids with HUVEC and MSC;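 note: spheroids exposed to agents for seven days before readout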;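 for viability, T/C: percent of vehicle DMSO control viability so 100% = untreated growth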
property.label: viability, T/C (%)

compound="C[C@@H](NC(=O)c1ncnc(N)c1Cl)c1ncc(C(=O)Nc2cc(C(F)(F)F)c(Cl)cn2)s1 + CC(Nc1ncnc2nc[nH]c12)c1cc2cccc(Cl)c2c(=O)n1-c1ccccc1" experimental_target="252836-082-R-J2-PDC tumor spheroids, viability" readout_units=% measured=89.5
compound="CCCS(=O)(=O)Nc1ccc(F)c(C(=O)c2c[nH]c3ncc(-c4ccc(Cl)cc4)cc23)c1F + CC(Nc1ncnc2nc[nH]c12)c1cc2cccc(Cl)c2c(=O)n1-c1ccccc1" experimental_target="252836-082-R-J2-PDC tumor spheroids, viability" readout_units=% measured=88.4
compound="CC1(C)CCC(Nc2ncc(C(F)(F)F)c(-c3c[nH]c4c(P(C)(C)=O)c(C#N)ccc34)n2)CN1 (stereo not drawn) + Cc1nc(NC(=O)N2CCCC2C(N)=O)sc1-c1ccnc(C(C)(C)C(F)(F)F)c1" experimental_target="252836-082-R-J2-PDC tumor spheroids, viability" readout_units=% measured=22.7

---

Attribute: viability, T/C
system: 252836-082-R-J2-PDC tumor spheroids, viability; experiment: Anticancer human tumor 252836-082-R-J2-PDC cell line growth inhibition [PI3K]; details: second compound 0.316 µM; first compound 0.0316 µM; stronger effect = lower value; spheroids with HUVEC and MSC;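 note: spheroids exposed to agents for seven days before readout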;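 for viability, T/C: percent of vehicle DMSO control viability so 100% = untreated growth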
property.label: viability, T/C (%)

molecule="CC(C)n1nc(-c2ccc3oc(N)nc3c2)c2c(N)ncnc21 + CC(Nc1ncnc2nc[nH]c12)c1cc2cccc(Cl)c2c(=O)n1-c1ccccc1" experimental_target="252836-082-R-J2-PDC tumor spheroids, viability" property_label="viability, T/C" measured=52
molecule="C=CC(=O)N1CCN(c2nc(=O)n(-c3c(C)ccnc3C(C)C)c3nc(-c4c(O)cccc4F)c(F)cc23)C(C)C1 (stereo not drawn) + CC(Nc1ccc2c(c1)OCCn1cc(N3C(=O)OCC3C(F)F)nc1-2)C(N)=O" experimental_target="252836-082-R-J2-PDC tumor spheroids, viability" property_label="viability, T/C" measured=63.5
molecule="CCN1CCN(Cc2ccc(Nc3ncc(F)c(-c4cc(F)c5nc(C)n(C(C)C)c5c4)n3)nc2)CC1 + CC(Nc1ncnc2nc[nH]c12)c1cc2cccc(Cl)c2c(=O)n1-c1ccccc1" experimental_target="252836-082-R-J2-PDC tumor spheroids, viability" property_label="viability, T/C" measured=95.7

---

Attribute: viability, T/C
test system: 252836-082-R-J2-PDC tumor spheroids, viability; assay: Anticancer human tumor 252836-082-R-J2-PDC cell line growth inhibition [PI3K]; settings: second compound 10 µM; first compound 0.001 µM; stronger effect = lower value; spheroids with HUVEC and MSC;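 note: spheroids exposed to agents for seven days before readout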;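 for viability, T/C: percent of vehicle DMSO control viability so 100% = untreated growth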
property.label: viability, T/C (%)

compound="CC(C)n1nc(-c2ccc3oc(N)nc3c2)c2c(N)ncnc21 + Cc1nc(NC(=O)N2CCCC2C(N)=O)sc1-c1ccnc(C(C)(C)C(F)(F)F)c1" measured=31.1
compound="CC(=O)c1c(C)c2cnc(Nc3ccc(N4CCNCC4)cn3)nc2n(C2CCCC2)c1=O + CC(Nc1ncnc2nc[nH]c12)c1cc2cccc(Cl)c2c(=O)n1-c1ccccc1" measured=56.3
compound="Cn1ncnc1[C@H]1c2n[nH]c(=O)c3cc(F)cc(c23)N[C@@H]1c1ccc(F)cc1 + Cc1nc(NC(=O)N2CCCC2C(N)=O)sc1-c1ccnc(C(C)(C)C(F)(F)F)c1" measured=38.5

---

tested on: 252836-082-R-J2-PDC tumor spheroids, viability; assay: Anticancer human tumor 252836-082-R-J2-PDC cell line growth inhibition [PI3K]; details: curve of first compound; second compound 0.1 µM; spheroids with HUVEC and MSC;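 note: spheroids exposed to agents for seven days before readout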
pIC50: −log10 of the molar value.
property.label: pIC50

molecule="Cn1ncnc1[C@H]1c2n[nH]c(=O)c3cc(F)cc(c23)N[C@@H]1c1ccc(F)cc1 + COc1c(OCCCN2CCOCC2)ccc2c3n(c(=NC(=O)c4cnc(N)nc4)nc12)CCN3" relation_operator=> measured=9.50
molecule="Cn1cnc2c(F)c(Nc3ccc(Br)cc3Cl)c(C(=O)NOCCO)cc21 + CC(Nc1ncnc2nc[nH]c12)c1cc2cccc(Cl)c2c(=O)n1-c1ccccc1" relation_operator== measured=5.55
molecule="Cn1ncc(Cl)c1-c1cc(C(=O)NC(CN)Cc2cccc(F)c2)sc1Cl (stereo not given) + CC(Nc1ccc2c(c1)OCCn1cc(N3C(=O)OCC3C(F)F)nc1-2)C(N)=O" relation_operator== measured=6.80
molecule="CC1(C)CCC(CN2CCN(c3ccc(C(=O)NS(=O)(=O)c4ccc(NCC5CCOCC5)c([N+](=O)[O-])c4)c(Oc4cnc5[nH]ccc5c4)c3)CC2)=C(c2ccc(Cl)cc2)C1 + CC(Nc1ncnc2nc[nH]c12)c1cc2cccc(Cl)c2c(=O)n1-c1ccccc1" relation_operator=< measured=5.00
molecule="CC1(C)CCC(CN2CCN(c3ccc(C(=O)NS(=O)(=O)c4ccc(NCC5CCOCC5)c([N+](=O)[O-])c4)c(Oc4cnc5[nH]ccc5c4)c3)CC2)=C(c2ccc(Cl)cc2)C1 + COc1c(OCCCN2CCOCC2)ccc2c3n(c(=NC(=O)c4cnc(N)nc4)nc12)CCN3" relation_operator=> measured=7.50

---

Attribute: viability, T/C
Test system: 252836-082-R-J2-PDC tumor spheroids, viability
Assay: Anticancer human tumor 252836-082-R-J2-PDC cell line growth inhibition [PI3K];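 note: spheroids exposed to agents for seven days before readout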;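 for viability, T/C: percent of vehicle DMSO control viability so 100% = untreated growth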
Conditions: second compound 0.0316 µM; first compound 0.1 µM; stronger effect = lower value; spheroids with HUVEC and MSC
Text: Combinatorial screen of targeted agents with the PI3K inhibitors inavolisib, alpelisib, duvelisib, and copanlisib in multi-cell type tumor spheroids A high-throughput screen of multi-cell type tumor spheroids was designed to identify active combinations of targeted small molecules and PI3K pathway inhibitors. […] Compounds. […] If the clinical Cmax for an agent had not been determined, the highest concentration tested was 10 microM. […]
property.label: viability, T/C

compound="Cn1ncc(Cl)c1-c1cc(C(=O)NC(CN)Cc2cccc(F)c2)sc1Cl (stereo not drawn) + CC(Nc1ccc2c(c1)OCCn1cc(N3C(=O)OCC3C(F)F)nc1-2)C(N)=O" experimental_target="252836-082-R-J2-PDC tumor spheroids, viability" measured=61.8%
compound="CCN1CCN(Cc2ccc(Nc3ncc(F)c(-c4cc(F)c5nc(C)n(C(C)C)c5c4)n3)nc2)CC1 + CC(Nc1ncnc2nc[nH]c12)c1cc2cccc(Cl)c2c(=O)n1-c1ccccc1" experimental_target="252836-082-R-J2-PDC tumor spheroids, viability" measured=99%
compound="Cn1ncc(Cl)c1-c1cc(C(=O)NC(CN)Cc2cccc(F)c2)sc1Cl (stereo not drawn) + COc1c(OCCCN2CCOCC2)ccc2c3n(c(=NC(=O)c4cnc(N)nc4)nc12)CCN3" experimental_target="252836-082-R-J2-PDC tumor spheroids, viability" measured=68.6%
